Target: Bile salt export pump (Rattus norvegicus, UniProt O70127)
Sequence (O70127 whole entry): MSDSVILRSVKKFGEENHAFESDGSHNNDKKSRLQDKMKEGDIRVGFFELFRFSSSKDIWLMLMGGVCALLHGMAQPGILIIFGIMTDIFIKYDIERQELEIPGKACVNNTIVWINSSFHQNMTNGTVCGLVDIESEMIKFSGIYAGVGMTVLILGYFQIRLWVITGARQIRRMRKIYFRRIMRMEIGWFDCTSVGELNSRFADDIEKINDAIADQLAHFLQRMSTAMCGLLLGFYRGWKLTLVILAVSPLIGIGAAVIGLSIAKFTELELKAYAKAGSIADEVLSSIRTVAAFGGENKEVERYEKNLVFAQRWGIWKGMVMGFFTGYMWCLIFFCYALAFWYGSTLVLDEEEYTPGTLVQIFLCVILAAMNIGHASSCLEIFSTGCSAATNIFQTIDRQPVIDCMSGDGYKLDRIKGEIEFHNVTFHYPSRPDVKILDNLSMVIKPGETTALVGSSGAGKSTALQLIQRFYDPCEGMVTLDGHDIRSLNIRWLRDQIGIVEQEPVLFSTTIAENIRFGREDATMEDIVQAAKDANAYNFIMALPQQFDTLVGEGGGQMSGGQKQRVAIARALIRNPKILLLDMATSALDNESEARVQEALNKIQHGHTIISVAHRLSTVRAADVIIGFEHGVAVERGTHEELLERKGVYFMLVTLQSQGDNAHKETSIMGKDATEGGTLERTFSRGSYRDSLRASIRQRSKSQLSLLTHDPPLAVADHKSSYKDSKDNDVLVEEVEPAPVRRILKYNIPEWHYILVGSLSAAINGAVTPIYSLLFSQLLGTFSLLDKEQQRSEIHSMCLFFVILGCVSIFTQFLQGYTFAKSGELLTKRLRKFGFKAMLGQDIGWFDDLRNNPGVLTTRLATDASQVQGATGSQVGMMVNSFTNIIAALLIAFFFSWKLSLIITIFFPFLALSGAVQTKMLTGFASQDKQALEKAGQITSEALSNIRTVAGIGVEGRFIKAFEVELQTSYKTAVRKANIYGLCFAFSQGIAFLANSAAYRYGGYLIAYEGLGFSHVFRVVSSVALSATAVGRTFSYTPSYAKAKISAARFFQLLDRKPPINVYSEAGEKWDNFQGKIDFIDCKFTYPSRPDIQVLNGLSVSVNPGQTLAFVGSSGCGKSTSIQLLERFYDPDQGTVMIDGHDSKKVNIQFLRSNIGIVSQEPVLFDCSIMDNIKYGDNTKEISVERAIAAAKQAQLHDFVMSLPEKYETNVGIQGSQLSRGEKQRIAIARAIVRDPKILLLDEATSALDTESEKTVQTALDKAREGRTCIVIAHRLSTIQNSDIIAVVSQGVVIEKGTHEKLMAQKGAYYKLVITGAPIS
property_measured: Ki

chemical_structure | Ki
CCC(C)(C)C(=O)O[C@H]1C[C@@H](C)C=C2C=C[C@H](C)[C@H](CC[C@@H]3C[C@@H](O)CC(=O)O3)[C@H]21 | > 10 µM
CC(C)n1c(/C=C/[C@@H](O)C[C@@H](O)CC(=O)O)c(-c2ccc(F)cc2)c2ccccc21 | > 10 µM

Consider the additional compound presented here.
Ask: What value of measured Ki is listed for CC(C)c1nc(N(C)S(C)(=O)=O)nc(-c2ccc(F)cc2)c1/C=C/[C@@H](O)C[C@@H](O)CC(=O)O ?
Result: > 10 µM
